Experiment: protein stability index of a GFP-peptide fusion (GPS, HEK-293T) (PSI 1-6); higher = more stable;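 also: 24-mer peptide tiles fused after GFP, lentivirally expressed, FACS-sorted into six equal bins by GFP/DsRed ratio, decoded by Illumina sequencing, PSI is the read-weighted mean bin number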
Settings: treatment: MLN4924 1 uM, 8 h; c terminus: a fixed tail appended
MEASUREMENT NAME: protein stability index
Give bare numbers.

Here are 8 sequences together with their reported answers.
[
  {
    "INPUT SEQUENCE": "PPPDVTQLTPPSHDLTDNIFPRLV [ANKRD17]",
    "MEASUREMENT NAME": "protein stability index",
    "MEASURED": 4.06
  },
  {
    "INPUT SEQUENCE": "KAKQEKVSAQYLSEIEMAKAQRDY [FLOT1]",
    "MEASUREMENT NAME": "protein stability index",
    "MEASURED": 4.64
  },
  {
    "INPUT SEQUENCE": "LQIASDSHQYDRIYCGAGVQKDHE [PCMTD1]",
    "MEASUREMENT NAME": "protein stability index",
    "MEASURED": 4.25
  },
  {
    "INPUT SEQUENCE": "DEGRLLLEFDLLIFSFGQLPLALV [SOAT2]",
    "MEASUREMENT NAME": "protein stability index",
    "MEASURED": 2.81
  },
  {
    "INPUT SEQUENCE": "QDSFEAAGNSTSGSRAGASSFSDP [KCNA3]",
    "MEASUREMENT NAME": "protein stability index",
    "MEASURED": 5.35
  },
  {
    "INPUT SEQUENCE": "LCPSRAELDRWLYHLEKQTALLGG [PLEKHN1]",
    "MEASUREMENT NAME": "protein stability index",
    "MEASURED": 2.62
  },
  {
    "INPUT SEQUENCE": "PAQVPREVLKVQTHLENPTRYHLQ [TFE3]",
    "MEASUREMENT NAME": "protein stability index",
    "MEASURED": 3.82
  },
  {
    "INPUT SEQUENCE": "KTDFGSCLLQPPSCPNGMSAENGL [DLC1]",
    "MEASUREMENT NAME": "protein stability index",
    "MEASURED": 3.87
  }
]

Next item in the queue.
Noted for HAYIHSVQFSHHVFLNLHTLKFYC [USP39] : its protein stability index reads 3.04

====

Test: protein stability index of a GFP-peptide fusion (GPS, HEK-293T) (PSI 1-6); higher = more stable
Conditions: treatment: MLN4924 1 uM, 8 h; c terminus: a fixed tail appended
Consider the following sequences; for each one, report its protein stability index.

Recorded results for 2 sequences are shown here.
[
  {
    "INPUT SEQUENCE": "REDDKLVVECVMKGVTSTRVYERA [FABP4]",
    "MEASURED": 4.09
  },
  {
    "INPUT SEQUENCE": "EANEEFALRVQQLVAKELGQTGTR [AUP1]",
    "MEASURED": 3.99
  }
]

// switching to the query sequence
The sequence AQKESLQNQHHSASLQASIFSGAA [APBB1IP] showed protein stability index equal to 3.98

====

Assay: protein stability index of a GFP-peptide fusion (GPS, HEK-293T) (PSI 1-6); higher = more stable
Details: treatment: DMSO; c terminus: a fixed tail appended
Answer each item with its documented protein stability index.
Numbers only.

[
  {
    "INPUT SEQUENCE": "FIGLEVVAQLFNCMVGLLLIALLT [ATL3]",
    "protein stability index": 3.08
  },
  {
    "INPUT SEQUENCE": "DKAVEIEELTYIIKQDINSLNKQI [STX5]",
    "protein stability index": 2.91
  },
  {
    "INPUT SEQUENCE": "RKSLALDIVDEDVKLMMSTLPKSL [MYBL2]",
    "protein stability index": 2.98
  },
  {
    "INPUT SEQUENCE": "DVNNLDPDLRSLFSRAGISEAQLT [WAS]",
    "protein stability index": 3.07
  }
]

Sure, the documented protein stability index for NQLLVADVKRLGKQNARFLTSMRR [STX11] is 2.97

====

Experiment: protein stability index of a GFP-peptide fusion (GPS, HEK-293T) (PSI 1-6); higher = more stable
Details: treatment: MLN4924 1 uM, 8 h; c terminus: a fixed tail appended
# protein stability index >= 4 gives Criterion met, anything below gives Criterion not met

[
  {
    "INPUT SEQUENCE": "VGTGTFGRVHLVKEKTAKHFFALK [PRKX]",
    "ASSIGNED CATEGORY": "Criterion not met"
  },
  {
    "INPUT SEQUENCE": "TACKPVIRVPSVPPVPCVPSVPCT [KRT36]",
    "ASSIGNED CATEGORY": "Criterion not met"
  },
  {
    "INPUT SEQUENCE": "RQNLKLLVEETSCQQNMIQELIET [CEP70]",
    "ASSIGNED CATEGORY": "Criterion not met"
  },
  {
    "INPUT SEQUENCE": "TPVPTITANVTSVPVPPAAAPPPP [BRD3]",
    "ASSIGNED CATEGORY": "Criterion met"
  }
]

protein stability index >= 4 for QPPLTYKRFQTLISKMEPLEIPVE [CRY1] ?
Criterion not met

Does the reported protein stability index for MIQTSKTEITELRRTLQGLEIELQ [KRT13] fall at or above the 4 mark?
Criterion not met

# bool: protein stability index of GEGRKSRKFSRLSCLRRRRHPPKV [SMG5] >= 4
Criterion not met

Hello, I need to know if DCEMNSPQVPPSQPLRPWAGGDVP [DYRK1B] has measured protein stability index not below 4. Thanks!
Criterion met

Confirm if protein stability index reported for the sequence SQKVLGLNEDPLKWWSDRLALFPL [ZBED1] is 4 or above.
Criterion not met

Does protein stability index meet or surpass 4 for SEMAEDLCKIGSERSLVLDRLASN [IKZF1] ?
Criterion met

Decide: is the reported value of protein stability index for YKGELFDKTPVLLTDYPVDLDEIA [MYORG] equal to or greater than 4?
Criterion not met

====

Answer each item with its documented protein stability index.
Test: protein stability index of a GFP-peptide fusion (GPS, HEK-293T) (PSI 1-6); higher = more stable
Conditions: treatment: MLN4924 1 uM, 8 h; c terminus: a fixed tail appended

Recorded protein stability index, per entry:
[
  {
    "INPUT SEQUENCE": "GANINAFDKKDRRALHWAAYMGHL [ANKRD44]",
    "protein stability index": 2.36
  },
  {
    "INPUT SEQUENCE": "VLALGLRTDVGITHQHWQQFEPQL [RSAD1]",
    "protein stability index": 2.35
  },
  {
    "INPUT SEQUENCE": "QGVISQLEDTCKTIEECCRKQKQE [TRIM55]",
    "protein stability index": 5.34
  },
  {
    "INPUT SEQUENCE": "EEVDEDGSGTIDFEEFLVMMVRQM [TNNC2]",
    "protein stability index": 3.79
  },
  {
    "INPUT SEQUENCE": "LRKSIFSESRKPTVSIMEPGETRR [TRIM29]",
    "protein stability index": 3.93
  }
]

Give one value of protein stability index per listed sequence.
1. KTSLLDQLTNTSGTVIGVTSCIVI [NETO1]
2. YSSQLSQVQSLITNVESQLAEIRS [KRT33B]
3. KQLEFCFSRENLSKDLYLISQMDS [LARP4]

2.76
3.66
2.33

====

Experiment: protein stability index of a GFP-peptide fusion (GPS, HEK-293T) (PSI 1-6); higher = more stable
Settings: treatment: MLN4924 1 uM, 8 h; c terminus: a fixed tail appended
Param threshold (3) applies to protein stability index; output fulfilled when value >= threshold, not fulfilled when value < threshold.

Please check the record SARWLEVLRTYLELVLCVLVSIRN [FBXO33] and state if its protein stability index is at or above 3.
not fulfilled

Could you please find out whether ICSSLQNLEKTIFCLQKLISLHPF [C8orf76] has protein stability index that meets 3 or exceeds it?
not fulfilled

State whether the measured protein stability index reaches 3, counting equality as reaching it, for LDDSTVARELAITDSEHSDAEVSC [RETREG3]
fulfilled

Assess whether reported protein stability index for REIARYLLEQGAQVNRRSAKGNTA [FEM1A] sits at 3 or higher.
fulfilled

====

Experiment: protein stability index of a GFP-peptide fusion (GPS, HEK-293T) (PSI 1-6); higher = more stable
Conditions: treatment: MLN4924 1 uM, 8 h; c terminus: a fixed tail appended
Assign criterion met whenever protein stability index does not fall below 3; assign criterion not met whenever it does.

Consider the following illustrative entries.
[
  {
    "INPUT SEQUENCE": "ESKGCFANTTPSGKSVSSSSSVET [SPATS1]",
    "ASSIGNED CATEGORY": "criterion met"
  },
  {
    "INPUT SEQUENCE": "AGRWLWGAQPCLLLPIVPLSWLVW [ADAMTS4]",
    "ASSIGNED CATEGORY": "criterion met"
  },
  {
    "INPUT SEQUENCE": "LQRLDFSVRGYMMSKQRERQLRRR [RETREG3]",
    "ASSIGNED CATEGORY": "criterion met"
  },
  {
    "INPUT SEQUENCE": "SQPAVELVSGSQSALGPPPAASNS [CLINT1]",
    "ASSIGNED CATEGORY": "criterion met"
  },
  {
    "INPUT SEQUENCE": "YPVTIGGKIVGSLCAIAGVLTIAL [KCNA1]",
    "ASSIGNED CATEGORY": "criterion not met"
  }
]

Item EKKLTVRQDLEDRYAEHVAATQAL [C22orf31] with protein stability index of 3 or above?
criterion met

Does the sequence QVYKETRLFLDGEEEKEWAFEESK [AASDHPPT] have recorded protein stability index that is 3 or more?
criterion met

Where these numbers come from: the supplement of paper PMC10567573
